# Test system: RPS6KB1 (human), P23443 [T412E]
# Sequence (P23443 whole entry T412E, looked up): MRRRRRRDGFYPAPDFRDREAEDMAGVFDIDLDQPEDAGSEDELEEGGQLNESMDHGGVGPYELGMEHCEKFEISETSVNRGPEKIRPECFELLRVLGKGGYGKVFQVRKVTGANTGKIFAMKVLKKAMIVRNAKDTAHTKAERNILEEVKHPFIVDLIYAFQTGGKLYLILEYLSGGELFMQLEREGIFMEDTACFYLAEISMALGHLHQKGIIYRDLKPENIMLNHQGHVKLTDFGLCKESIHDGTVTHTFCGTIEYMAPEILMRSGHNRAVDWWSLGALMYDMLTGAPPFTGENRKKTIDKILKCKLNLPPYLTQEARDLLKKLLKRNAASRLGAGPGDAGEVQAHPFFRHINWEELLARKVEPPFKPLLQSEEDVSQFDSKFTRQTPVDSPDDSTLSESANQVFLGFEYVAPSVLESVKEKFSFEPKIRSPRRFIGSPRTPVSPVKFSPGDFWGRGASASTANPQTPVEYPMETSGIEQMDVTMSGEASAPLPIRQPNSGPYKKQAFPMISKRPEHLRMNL
# Procedure Details: radiometric filter-binding kinase assay
# Recorded Conditions: compound 0.1 µM
Parameter: residual activity (%)
# output: bare number, implied unit %

Cc1ccc(-c2ccc3c(ccc4sc5c(c43)NC[C@@H](C)NC5=O)n2)cn1
99
COc1cc(O)c2c(c1)[C@H]1OC1C[C@H](O)[C@H](O)C(=O)/C=C\C[C@H](C)OC2=O (some centres not stated)
92
Cc1ccc(Sc2cnc(Nc3cccc(Br)n3)s2)cc1C(=O)N1CCN(C(=O)CN)CC1
95
O=C(Nc1ccccc1-c1cn2c(CN3CCNCC3)csc2n1)c1cnc2ccccc2n1
86
CCn1c(-c2nonc2N)nc2cncc(CNC3CCNCC3)c21
16
COc1ccc2c(c1)c1c3c(c4c5ccccc5n(C)c4c1n2CC(O)CN(C)C)C(=O)NC3=O (configuration not stated)
11

# input for lookup
residual activity measured on CNC(=O)C1[C@H]2O[C@@](C)([C@@H]1N)n1c3ccccc3c3c4c(c5c6ccccc6n2c5c31)C(=O)NC4 (some centres not stated) = 6

* * *

# Test System: CAMKK2 (human) (UniProt Q96RR4)
# Sequence (Q96RR4 whole entry, looked up): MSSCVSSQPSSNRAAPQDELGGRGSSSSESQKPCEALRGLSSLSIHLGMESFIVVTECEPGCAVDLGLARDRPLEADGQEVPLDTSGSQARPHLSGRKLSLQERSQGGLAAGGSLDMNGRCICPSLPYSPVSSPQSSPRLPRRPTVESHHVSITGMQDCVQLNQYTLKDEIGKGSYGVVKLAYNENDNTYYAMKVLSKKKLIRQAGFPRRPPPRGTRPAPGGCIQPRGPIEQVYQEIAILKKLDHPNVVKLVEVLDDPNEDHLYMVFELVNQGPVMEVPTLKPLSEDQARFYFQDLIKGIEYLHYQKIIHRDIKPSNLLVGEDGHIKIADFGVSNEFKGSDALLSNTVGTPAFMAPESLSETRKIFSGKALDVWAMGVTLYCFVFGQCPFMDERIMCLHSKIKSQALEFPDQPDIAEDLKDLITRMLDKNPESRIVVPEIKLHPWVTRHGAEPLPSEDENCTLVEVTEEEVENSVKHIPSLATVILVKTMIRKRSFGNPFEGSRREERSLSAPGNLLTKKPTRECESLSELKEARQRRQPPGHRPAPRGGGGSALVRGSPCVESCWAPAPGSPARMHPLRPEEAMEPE
# Procedure Details: radiometric filter-binding kinase assay
# Recorded Conditions: compound 10.0 µM
Threshold 80%: residual activity strictly smaller gives fulfilled, otherwise not fulfilled.

// below: answered compounds
C[C@H]1CCCC(=O)CCC/C=C/c2cc(O)cc(O)c2C(=O)O1
fulfilled
O=C(N[C@@H](COc1ccc2[nH]c(=O)[nH]c2c1)c1ccccc1)c1cccn(Cc2ccc(F)c(F)c2)c1=O
not fulfilled
COc1ccc2c(c1)c1c3c(c4c5ccccc5n(C)c4c1n2CC(O)CN(C)C)C(=O)NC3=O (stereo not drawn)
fulfilled
CN1C(=O)[C@@H](Cc2c[nH]c3ccccc23)NC1=S
not fulfilled
O=C(Nc1ccccc1-c1cn2c(CN3CCNCC3)csc2n1)c1cnc2ccccc2n1
fulfilled
Cn1nc(Nc2ccc(F)cc2)c2c(N)ncnc21
not fulfilled

Asked: Is residual activity of NC(=O)Nc1ccc2c(c1)/C(=C/c1cc(-c3cccnc3)c[nH]1)C(=O)N2 strictly below 80%?
Given back: fulfilled

Asked: Is residual activity of FC(F)(F)c1ccc(-c2ccc(Oc3cncc4sc(-c5nn[nH]n5)cc34)cc2)cc1 strictly below 80%?
Given back: fulfilled

Asked: Is residual activity of N#Cc1c(C2CCNCC2)cc(-c2c(O)cccc2OCC2CC2)nc1N strictly below 80%?
Given back: fulfilled

Asked: Is residual activity of N#Cc1c(O)c2c(-c3ccc(-c4ccccc4O)cc3)csc2[nH]c1=O strictly below 80%?
Given back: not fulfilled

Asked: Is residual activity of NC1(c2ccc(-c3nc4ccn5c(=O)[nH]nc5c4cc3-c3ccccc3)cc2)CCC1 strictly below 80%?
Given back: not fulfilled

Asked: Is residual activity of CCn1c(-c2nonc2N)nc2cncc(CNC3CCNCC3)c21 strictly below 80%?
Given back: not fulfilled

Asked: Is residual activity of O=C1NC(=S)N[C@@H]1Cc1c[nH]c2ccccc12 strictly below 80%?
Given back: not fulfilled

* * *

Listed compounds paired with reported residual activity
# Test System: STK16 (human) (UniProt O75716)
# Sequence (O75716 whole entry, looked up): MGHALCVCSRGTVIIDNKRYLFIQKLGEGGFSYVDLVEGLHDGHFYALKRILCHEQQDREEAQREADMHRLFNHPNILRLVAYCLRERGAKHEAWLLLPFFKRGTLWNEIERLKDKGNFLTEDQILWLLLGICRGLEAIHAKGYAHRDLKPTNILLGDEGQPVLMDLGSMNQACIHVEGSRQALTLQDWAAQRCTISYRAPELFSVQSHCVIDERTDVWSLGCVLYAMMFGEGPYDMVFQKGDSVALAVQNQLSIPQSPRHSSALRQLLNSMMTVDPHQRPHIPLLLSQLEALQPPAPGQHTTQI
# Procedure Details: radiometric filter-binding kinase assay
# Recorded Conditions: compound 10.0 µM
# output: bare number, implied unit %

Recorded residual activity, per entry:
Nc1cccc2c1CN(C1CCC(=O)NC1=O)C2=O (centres undefined)
100
O=S(=O)(c1ccc(F)c2nonc12)N1CCN(c2ncc(C(F)(F)F)cc2Cl)CC1
94
C=CC(=O)N1CCC[C@@H](n2nc(-c3ccc(Oc4ccccc4)cc3)c3c(N)ncnc32)C1
104
O=C(NOC[C@H](O)CO)c1ccc(F)c(F)c1Nc1ccc(I)cc1Cl
101
Cc1ccc(-c2ccc3c(ccc4sc5c(c43)NC[C@@H](C)NC5=O)n2)cn1
105

Here NC(=O)c1cc(-c2ccnc(NC3CCCCC3)c2)nc(N2CCNCC2)c1 was tested on STK16 (human) (UniProt O75716), and its residual activity came to 84

Here CC(C)C[C@H](NC(=O)CNC(=O)c1cc(Cl)ccc1Cl)B1OC(=O)CC(CC(=O)O)(C(=O)O)O1 (some centres undefined) was tested on STK16 (human) (UniProt O75716), and its residual activity came to 102

Here O=C(N[C@@H](COc1ccc2[nH]c(=O)[nH]c2c1)c1ccccc1)c1cccn(Cc2ccc(F)c(F)c2)c1=O was tested on STK16 (human) (UniProt O75716), and its residual activity came to 106

* * *

# Test System: AURKA (human)
# Procedure Details: radiometric filter-binding kinase assay
# Recorded Conditions: compound 0.1 µM
Parameter: residual activity (%)
# output: bare number, implied unit %

NC(=O)c1cc(-c2ccnc(NC3CCCCC3)c2)nc(N2CCNCC2)c1
92

Here COc1cc(O)c2c(c1)[C@H]1OC1C[C@H](O)[C@H](O)C(=O)/C=C\C[C@H](C)OC2=O (stereo partly specified) was tested on AURKA (human), and its residual activity came to 103

Here NC1(c2ccc(-c3nc4ccn5c(=O)[nH]nc5c4cc3-c3ccccc3)cc2)CCC1 was tested on AURKA (human), and its residual activity came to 114

Here Cc1cccc(-c2nn(C(=S)Nc3ccccc3)cc2-c2ccnc3ccccc23)n1 was tested on AURKA (human), and its residual activity came to 120

Here O=C(Nc1nc2cc(C(F)(F)F)cc(NC3CC3)n2n1)c1cccnc1 was tested on AURKA (human), and its residual activity came to 128

Here O=C(N[C@@H](COc1ccc2[nH]c(=O)[nH]c2c1)c1ccccc1)c1cccn(Cc2ccc(F)c(F)c2)c1=O was tested on AURKA (human), and its residual activity came to 110

* * *

# Test System: IRAK4 (human)
# Procedure Details: radiometric filter-binding kinase assay
# Recorded Conditions: compound 10.0 µM
Parameter: residual activity (%)
# output: bare number, implied unit %

CNc1nc(-c2ccc3c(N)n[nH]c3c2)cc(N2C[C@@H](C(=O)NC3CCCCC3)CC[C@H]2C)n1
99
CCCC(CCC)C(=O)O
94

# input for lookup
residual activity measured on CCn1c(-c2nonc2N)nc2cncc(CNC3CCNCC3)c21 = 87

* * *

# Test System: UniProt:P49841
# Sequence (P49841 whole entry, looked up): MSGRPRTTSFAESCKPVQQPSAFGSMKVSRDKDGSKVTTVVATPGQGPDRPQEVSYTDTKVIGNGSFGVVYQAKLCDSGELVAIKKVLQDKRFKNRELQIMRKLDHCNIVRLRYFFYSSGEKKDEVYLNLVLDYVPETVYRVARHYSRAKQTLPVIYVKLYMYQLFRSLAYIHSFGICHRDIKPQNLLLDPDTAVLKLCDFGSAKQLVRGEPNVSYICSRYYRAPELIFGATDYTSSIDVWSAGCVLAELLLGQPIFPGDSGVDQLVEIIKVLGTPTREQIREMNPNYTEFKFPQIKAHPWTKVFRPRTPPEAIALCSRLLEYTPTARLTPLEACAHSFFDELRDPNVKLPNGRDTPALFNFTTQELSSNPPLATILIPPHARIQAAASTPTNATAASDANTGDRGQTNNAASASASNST
# Procedure Details: radiometric filter-binding kinase assay
# Recorded Conditions: compound 1.0 µM
Parameter: residual activity (%)
# output: bare number, implied unit %

Recorded residual activity, per entry:
NC(=O)c1cc(-c2ccnc(NC3CCCCC3)c2)nc(N2CCNCC2)c1
82
O=C(O)c1ccc(-c2c[nH]c3ncc(-c4ccccc4)cc23)cc1C1CCCC1
78

# input for lookup
residual activity measured on O=C(Nc1nc2cc(C(F)(F)F)cc(NC3CC3)n2n1)c1cccnc1 = 79

* * *

# Test System: PRKCG (human)
# Procedure Details: radiometric filter-binding kinase assay
# Recorded Conditions: compound 1.0 µM
Parameter: residual activity (%)
# output: bare number, implied unit %

Recorded residual activity, per entry:
Nc1cccc2c1CN(C1CCC(=O)NC1=O)C2=O (stereo unspecified)
108
c1ccc2c(-c3cnn4cc(-c5ccc(N6CCNCC6)cc5)cnc34)ccnc2c1
97
COc1cc(O)c2c(c1)/C=C/C[C@H](O)[C@H](O)C(=O)/C=C\C[C@H](C)OC2=O
87
C=C1C(=O)OC2C1CC/C(C)=C/CCC1(C)OC21 (stereo unspecified)
120
O=C(Nc1nc2cc(C(F)(F)F)cc(NC3CC3)n2n1)c1cccnc1
106

residual activity measured on NC(=O)c1cc(-c2ccnc(NC3CCCCC3)c2)nc(N2CCNCC2)c1 = 103

* * *

Listed compounds paired with reported residual activity
# Test System: PRKACA (human)
# Procedure Details: radiometric filter-binding kinase assay
# Recorded Conditions: compound 0.1 µM
# output: bare number, implied unit %

Recorded residual activity, per entry:
CC1=C(CO)C(=O)O[C@@H]([C@@H](C)[C@H]2CC[C@H]3[C@@H]4C[C@H]5O[C@]56[C@@H](O)C=CC(=O)[C@]6(C)C4CC[C@]23C)C1 (stereo partly specified)
112
NC(=O)c1cc2c(-c3cccc(-c4ccccc4)c3)cnc(N)c2s1
80
CCc1cncnc1N1CCN(Cc2nc3cc(C(F)(F)F)ccc3[nH]2)CC1
84
COc1ccc(N(C(=O)Nc2c(C)cccc2C)c2cc(Nc3ccc(N4CCN(C)CC4)cc3)ncn2)c(OC)c1
96

residual activity measured on NC(=O)Nc1ccc2c(c1)/C(=C/c1cc(-c3cccnc3)c[nH]1)C(=O)N2 = 78

residual activity measured on O=C(Nc1nc2cc(C(F)(F)F)cc(NC3CC3)n2n1)c1cccnc1 = 99

residual activity measured on COc1cc(O)c2c(c1)[C@H]1OC1C[C@H](O)[C@H](O)C(=O)/C=C\C[C@H](C)OC2=O (stereo partly specified) = 99

residual activity measured on c1ccc2c(-c3cnn4cc(-c5ccc(N6CCNCC6)cc5)cnc34)ccnc2c1 = 99

residual activity measured on O=C(Nc1ccccc1-c1cn2c(CN3CCNCC3)csc2n1)c1cnc2ccccc2n1 = 80

residual activity measured on NC(=O)c1cc(-c2ccnc(NC3CCCCC3)c2)nc(N2CCNCC2)c1 = 105

residual activity measured on Cc1ccc(Sc2cnc(Nc3cccc(Br)n3)s2)cc1C(=O)N1CCN(C(=O)CN)CC1 = 98

residual activity measured on O=C(NCCCNc1nc(Nc2cccc(CN3CCOCC3)c2)ncc1C1CC1)C1CCC1 = 90

The origin of these recorded values is the kinase profiling compilation of Christmann-Franck et al. (2016).
